Target or system Pepsin A (Homo sapiens, UniProt P0DJD9); recorded quantity IC50.

Chemical Structure	Result
N=C(N)NC(=O)Cn1c(-c2ccccc2)ccc1-c1ccccc1	> 50 µM

Moving on to the next compound.
Task: Recorded IC50 for CCCOc1ccc(-c2ccc(-c3ccccc3Cl)n2CC(=O)NC(=N)NCCCO)cc1 with Pepsin A (Homo sapiens, UniProt P0DJD9), please?
Output: > 50 µM

###

# System Tested: Cathepsin D (Homo sapiens)
# Sequence (P07339 65-162 limits assumed): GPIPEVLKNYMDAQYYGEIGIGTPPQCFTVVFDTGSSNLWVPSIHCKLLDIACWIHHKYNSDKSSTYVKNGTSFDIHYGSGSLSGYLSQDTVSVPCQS
# Sequence (P07339 169-412 limits assumed): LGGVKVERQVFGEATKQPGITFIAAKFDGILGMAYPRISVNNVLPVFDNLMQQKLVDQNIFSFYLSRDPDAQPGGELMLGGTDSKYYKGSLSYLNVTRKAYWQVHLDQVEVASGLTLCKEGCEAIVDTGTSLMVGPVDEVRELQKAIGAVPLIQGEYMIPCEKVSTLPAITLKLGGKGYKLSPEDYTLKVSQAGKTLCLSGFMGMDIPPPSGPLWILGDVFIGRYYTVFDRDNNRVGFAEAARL
Property Measured: pIC50
Quick note: pIC50 means taking -log10 of the concentration in moles per liter.

Task: Give its pIC50 value. Item: CCCOc1ccc(-c2ccc(-c3ccccc3Cl)n2CC(=O)NC(=N)NCCCO)cc1
Output: 5.23

###

# System Tested: Beta-secretase 2 (Homo sapiens)
# Sequence (Q9Y5Z0 whole entry): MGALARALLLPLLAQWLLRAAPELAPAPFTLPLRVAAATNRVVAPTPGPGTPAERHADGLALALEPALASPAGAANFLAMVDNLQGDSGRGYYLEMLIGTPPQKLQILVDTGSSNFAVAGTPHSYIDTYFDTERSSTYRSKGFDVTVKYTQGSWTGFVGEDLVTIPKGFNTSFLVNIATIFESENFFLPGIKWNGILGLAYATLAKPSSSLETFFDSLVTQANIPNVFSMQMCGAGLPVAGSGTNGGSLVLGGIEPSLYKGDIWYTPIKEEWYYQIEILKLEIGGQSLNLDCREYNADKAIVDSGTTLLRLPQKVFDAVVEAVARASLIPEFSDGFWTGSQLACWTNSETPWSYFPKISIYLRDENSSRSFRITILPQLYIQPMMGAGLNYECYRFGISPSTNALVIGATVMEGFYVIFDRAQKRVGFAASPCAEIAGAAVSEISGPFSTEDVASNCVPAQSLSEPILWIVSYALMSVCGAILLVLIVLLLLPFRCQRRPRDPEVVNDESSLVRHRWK
Property Measured: IC50 (nM)
# output: bare number, implied unit nM

Chemical Structure	System Tested	Measured Number
N/C(=N/C(=O)Cn1c(-c2ccccc2)ccc1C12CC3CC(CC(C3)C1)C2)NCCCO	Beta-secretase 2 (Homo sapiens)	3500

Moving on to the next compound.
Task: Give its IC50 value. Item: CCCOc1ccc(-c2ccc(-c3ccccc3Cl)n2CC(=O)NC(=N)NCCCO)cc1
Output: 340

Origin of measurements: ChEMBL document CHEMBL1137408
